Below: a set of entries, each annotated with reported pKd.
# target_under_test: SARS-COV-2 RBD extracellular domain expressed with a C-terminal mouse IgG2a Fc (SARS-CoV-2)
# method_description: Biacore SPR, mAb captured on anti-hFc, 37 C
pKd: −log10 of the molar value.
quantity: pKd

binder | reported
mAb14255 (antibody, V domains shown) VH: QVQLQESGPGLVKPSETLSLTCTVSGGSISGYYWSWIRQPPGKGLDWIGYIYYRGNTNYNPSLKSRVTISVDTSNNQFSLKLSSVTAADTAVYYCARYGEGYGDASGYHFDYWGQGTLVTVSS VL: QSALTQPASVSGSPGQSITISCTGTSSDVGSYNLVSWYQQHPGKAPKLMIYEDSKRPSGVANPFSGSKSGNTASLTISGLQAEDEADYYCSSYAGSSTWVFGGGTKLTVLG | 9.93
mAb14285 (antibody, V domains shown) VH: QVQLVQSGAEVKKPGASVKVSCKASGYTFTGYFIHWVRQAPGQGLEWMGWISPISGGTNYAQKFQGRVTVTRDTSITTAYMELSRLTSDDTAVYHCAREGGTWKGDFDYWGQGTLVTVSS VL: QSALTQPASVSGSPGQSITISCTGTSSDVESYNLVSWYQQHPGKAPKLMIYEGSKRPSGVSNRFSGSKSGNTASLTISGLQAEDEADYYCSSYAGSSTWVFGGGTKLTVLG | 9.64
mAb15157 (antibody, V domains shown) VH: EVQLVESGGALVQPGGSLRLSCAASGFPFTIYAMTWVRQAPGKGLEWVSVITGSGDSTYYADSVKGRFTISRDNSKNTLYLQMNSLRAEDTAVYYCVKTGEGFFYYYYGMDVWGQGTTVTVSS VL: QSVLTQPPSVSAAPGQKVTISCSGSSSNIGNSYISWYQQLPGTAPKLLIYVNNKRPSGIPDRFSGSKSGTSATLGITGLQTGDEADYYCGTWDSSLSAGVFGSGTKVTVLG | 9.94
mAb15158 (antibody, V domains shown) VH: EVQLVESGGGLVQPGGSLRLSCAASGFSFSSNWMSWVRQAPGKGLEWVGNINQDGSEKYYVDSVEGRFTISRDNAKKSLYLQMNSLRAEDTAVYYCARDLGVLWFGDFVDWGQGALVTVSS VL: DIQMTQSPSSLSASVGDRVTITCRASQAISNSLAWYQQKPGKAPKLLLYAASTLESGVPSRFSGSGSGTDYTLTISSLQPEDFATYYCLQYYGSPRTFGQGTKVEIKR | 9.77
mAb15151 (antibody, V domains shown) VH: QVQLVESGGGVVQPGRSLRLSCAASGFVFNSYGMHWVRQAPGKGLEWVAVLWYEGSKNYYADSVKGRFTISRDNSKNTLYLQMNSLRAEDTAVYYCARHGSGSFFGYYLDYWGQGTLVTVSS VL: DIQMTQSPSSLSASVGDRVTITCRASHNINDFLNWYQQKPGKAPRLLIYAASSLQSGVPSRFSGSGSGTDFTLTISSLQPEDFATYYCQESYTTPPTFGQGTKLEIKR | 9.07
mAb15165 (antibody, V domains shown) VH: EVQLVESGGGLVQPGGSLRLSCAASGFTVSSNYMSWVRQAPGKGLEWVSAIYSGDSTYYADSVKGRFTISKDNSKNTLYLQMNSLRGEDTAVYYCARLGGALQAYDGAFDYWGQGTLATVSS VL: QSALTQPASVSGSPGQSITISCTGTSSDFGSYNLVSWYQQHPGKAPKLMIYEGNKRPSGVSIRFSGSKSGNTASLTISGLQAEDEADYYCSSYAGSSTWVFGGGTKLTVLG | 9.35

From: patent US20260069689A1
